- assayOverview: yeast display, Sf9 membrane polyspecificity reagent, FACS + sequencing; frameworks hold sequencing errors
observedProperty: polyreactivity (PSR sort gate)

• QVQLVESGGGLVQAGGTLRLSCAASGRTFTYYAMGWYRQAPGKERELVATIRSGGTTNYADSVKGRFTISRDNAKNTVYLQMNSLKPEDTAEYYCARVLSYVWYYRDPYQYPDYDFWGQGTQVTGSS = low polyreactivity
• QVQLVESGGGLVQAGGSLRLSCAASGPIFTSNAMGWYRQAPGKERELVAAISRRGTRTYYADSVKGRFTISRDNAKNTVYLQMNSLKPEDTAVYYCAAGWTTRYFGGVDYWGQGTQVTVSS = high polyreactivity
• QVQLVESGGGLVQAGGSLRLSCADSGSTFKYYAMGWYRQAPGKEREFVASINWSGVSTYYADSVKGRFTISRDNPKNTVYLQMNSLKPEDTSVYYCAARVRGKYDYWGQGTQVTVSS = high polyreactivity
• QVQLVESGGGLVQAGGSLRLSCAASGRIFINVLGWSRQAPGKETELVATITNSGGSTYYADSVKGRFTISRDNAKNTVYLQMNSLKPEDTAVYYCAKRSYHRYGVYRYDYWGQGTQLTVSS = high polyreactivity

Noted for QVQLVDSGGGLVQAGGSLRLSCAASGSTLRRYAMGWYRQAPGKERELVAAISGSGDSTYYADSVKGRFTISRDNAKNTVYLQMNSLKPEDTAVYYCNAVYAFNGYDYWGQGTQVTVSS : its polyreactivity (PSR sort gate) reads low polyreactivity

Just so you know, measured polyreactivity (PSR sort gate) for QVQLVESGGGLVQAGGSLRLSCAASGFTYVYNAMGWYRQAPGTERELVAAISSGGSTYYADSVKGRFTISRDNAKYTVYLQMNSLKPEDTAVYYCARRSSWFKYEYWGQGTQVTVSS came out at low polyreactivity

Entry QVQLVESGGGLVQAGGSLRLSCAASGYIFYYNTMGWYRQAPGKERELVAAIRSSGGSTYYADSVKGRFTISRDNAKNTVYLQMNSLKPEDTAVYYCAARPYRTKLIYGYWGQGTQVTVSS , polyreactivity (PSR sort gate) reported as high polyreactivity

QVQLVESGGGLVQAGGSLRLSCAASARIFSPYAMGWYRQAPGKERELVAAITSASSTYYADSVKGRFTISRDNAKNTLYLQMNSLKPEDTAVYYCAASYWRYGSAFDYWGQGTQVTVSS has a reported polyreactivity (PSR sort gate) of high polyreactivity

Record QVQLVESGGGLVQAGGSLRISCAASGRTFLSNAMGWYRQAPGKERELVAAISNGDNTYYADSVKGRFTISRDNAKNTVYLQMNSLKPEDTAVYYCAADQYWSWIYYPVVEYDYWGQGTQVTVSS , field polyreactivity (PSR sort gate): low polyreactivity

Query QVQLVESGGGLVQAGGSLRLSCAASGLTFGTYAMGWYRQAPGKERELVAAIRSGGSTNYADSVKGRFTISRDTAKNTVYLQMNILKPEDNAVYYCAKRYYWDRYYYWGQGTPVTVSS yields polyreactivity (PSR sort gate) of high polyreactivity

Lab book: polyreactivity (PSR sort gate) of QDHLVESGGCLVQAGGTLRLSCAASGFTIGNYAMAWYRQPPGKERELVAAISWSGGSTYYADSVKGRFTISRDNAKNTVYLQMNSLNPEVTAVYYCNPKRGSLWESDYWGQGSQVTVSS noted as high polyreactivity

Looking up QVQLQESGGGLVQAGGSLRLSCAASGSISPYYDMGWYRQAPGKEREFVAGISGGAITYYADSVKGRFTISRDNAKNTVYLQMNSLKPEDTAVYYFAADTGVYQYHSYWGQGTQVTVSS , I found its polyreactivity (PSR sort gate) recorded as low polyreactivity

QVQLVESGGGLVQAGGSLRLSCAASGYTFRRYAMGWYRQAPGKERELVAGITRTGNTNYADSVKGRFTISRDNAKNTVYLQMNSLKPEDTAVYYCARDLGGYKRLYDYWGQGTQVTVSS yielded polyreactivity (PSR sort gate) of high polyreactivity

Measured polyreactivity (PSR sort gate), QVQLVESGGGLVQAGGSLRLSCAASGRIFFVNAMGWSRQAPGKERELVAAISRGGSTNYADSVKGRFTISRDNAKNTVYLQMNSLKPEDTAVYYCNADGSSYWYPVPLDGGDYWGQGTQVTVSS : low polyreactivity

Item: QVQLVESGGGLVQAGGSLRLSCAASGFTFDSYAMGWYRQAPGKERELVAAITWDGGSTYYADSVKGRFTISRDNAKNTVYLQMNSLKPEDTAVYYCAADFGTISIDVYSWMDYWGQGTQVTVSS | polyreactivity (PSR sort gate): low polyreactivity

// field: polyreactivity (PSR sort gate); key: QVQLVESGGGLVQAGGSLRLSCAASGSTFPPYVMGWYRQAPGKERELVAAITWSSGSTYYADSVKGRFTISRDNAKNTVYLQMNSLKPEDTAVYYCAARAYRWGQGTQVTVSS ; value = low polyreactivity

Summary for this sequence, QVQIVESGGGLVQAGGSLRLSCAASGGTFWANAMGWYRQAPGKERELVAAITSGGSTYADSVKGRFTISRDNAKNTVYLQMNSLKPDDTAVYYCNARRYRYRPYLSGYNYWGQGTQVTVSS : polyreactivity (PSR sort gate) is high polyreactivity

The recorded polyreactivity (PSR sort gate) for QVQLEETGGGLVQAGASLRISCAASGSIMGQNGMGWYRHAPGKEREFVAGIGYGTTTNYADSVKGRFTTSRDNAKNTVYLQMISMKPEDTAVYYCAAYQGNGYEFYYWGQGTQVTVRS is low polyreactivity

Field polyreactivity (PSR sort gate) (entry QVQLVESGGGLVQAGGSLRLSCAASGLIFYRYAMGWYRQAPGKERELVAAISARGSSTYYADSVKGRFTISRDNAKNTVYLQMNSLKPEDTAVYYCAAGATGTSYYGGDYWGQGTQVTVSS ) reads high polyreactivity

QVQLVESGGGLVQEGGSLLLSFAASGSTFGYYAMGWYRQAPGKEREFVAAISDSGDGTYYADSVKGRFTISRDNEKNTVYLQMNSLKQEDTAVYYCAAEAPYYFGWWYGYKYDSWGQGTQVTVSW has a reported polyreactivity (PSR sort gate) of high polyreactivity

# sequence QVQLVESGGGLVQAGGSLRLSCAASGIIFYRYALGWYRQAPRTERELVAAISSSGTNTYYADSVKGRFTISRDNAKNTVYLQMNSLKPEDTAVYYCNADTLADRSTYDYWGQGTQVNVSS ; its polyreactivity (PSR sort gate) = low polyreactivity

All figures here come from the nanobody polyreactivity screen of Harvey et al. (2022).
